This listing pairs compounds with measured combination Emax.
Tested on: OS-RC-2 (Kidney Carcinoma)
TEST: combination Emax (second highest fraction inhibited in the dose matrix, 72 h); higher = more inhibition; extreme values may be limits of the assay
Returns: the value as a bare number; no unit string appended.

Some compounds with known combination Emax results, for comparison:
compound="COc1cc2ncnc(Nc3ccc(F)c(Cl)c3)c2cc1OCCCN1CCOCC1 [Gefitinib] + CC(C)n1c(=O)n(C)c2cnc3cc(F)c(-c4ccc(OCCCN5CCCCC5)nc4)cc3c21 [AZD1390] (first compound max 10 µM, 7x7, partner max 0.3 µM)" experimental_value=0.145
compound="CCN(CCO)CCCOc1ccc2c(Nc3cc(CC(=O)Nc4cccc(F)c4)[nH]n3)ncnc2c1 [AZD2811] + O=C(c1cc(Cc2n[nH]c(=O)c3ccccc23)ccc1F)N1CCN(C(=O)C2CC2)CC1 [Olaparib] (first compound max 1 µM, 7x7, partner max 10 µM)" experimental_value=0.178

The record that follows has no combination Emax shown yet.
Prompt line: State the recorded combination Emax for this entry: COc1nnc2ccc(N3CCC(c4ccc(OCCN5CCN(C)C(=O)[C@H]5C)cc4)CC3)nn12 [AZD5153] + Cn1cnc2c(F)c(Nc3ccc(Br)cc3Cl)c(C(=O)NOCCO)cc21 [Selumetinib] (first compound max 1 µM, 7x7, partner max 10 µM)
Response line: 0.343

====

System: CAL-29 (Bladder Carcinoma)
TEST: combination Emax (second highest fraction inhibited in the dose matrix, 72 h); higher = more inhibition; extreme values may be limits of the assay
TEST_READOUT: combination Emax
In your answer, state the number alone without any accompanying words.

Answered examples (2):
compound="Cc1c2c(nn1C)CSCc1cc(n(C)n1)CSc1cc(c3ccccc3c1)OCCCc1c(C(=O)O)n(C)c3c-2c(Cl)ccc13 [AZD5991] + CN(C)CCCOc1ccc(-c2ccc3ncc4c(c3c2)n(C2CCOCC2)c(=O)n4C)cn1 [AZD0156] (first compound max 1 µM, 7x7, partner max 1 µM)" system="CAL-29 (Bladder Carcinoma)" experimental_value=0.545
compound="COc1cccc(OCCCN)c1-c1cc(Nc2cnc(C#N)cn2)n[nH]1 [Prexasertib] + Cc1cc2ncnn2cc1Nc1ncc2c(n1)n(C1CCOCC1)c(=O)n2C [AZD7648] (first compound max 1 µM, 7x7, partner max 10 µM)" system="CAL-29 (Bladder Carcinoma)" experimental_value=0.79

Prompt line: Would you mind telling me what combination Emax value was observed for Cc1c2c(nn1C)CSCc1cc(n(C)n1)CSc1cc(c3ccccc3c1)OCCCc1c(C(=O)O)n(C)c3c-2c(Cl)ccc13 [AZD5991] + Cn1cnc2c(F)c(Nc3ccc(Br)cc3Cl)c(C(=O)NOCCO)cc21 [Selumetinib] (first compound max 1 µM, 7x7, partner max 3 µM) ?
Response line: 0.677

Prompt line: What value of combination Emax has been reported for the following compound? C=CCn1c(=O)c2cnc(Nc3ccc(N4CCN(C)CC4)cc3)nc2n1-c1cccc(C(C)(C)O)n1 [AZD1775] + C1CN(CCC1(C(=O)N[C@@H](CCO)C2=CC=C(C=C2)Cl)N)C3=NC=NC4=C3C=CN4 [Capivasertib] (first compound max 3 µM, partner max 3 µM)
Response line: 0.839

Prompt line: combination Emax lookup needed for CCN(CCO)CCCOc1ccc2c(Nc3cc(CC(=O)Nc4cccc(F)c4)[nH]n3)ncnc2c1 [AZD2811] + C=CCn1c(=O)c2cnc(Nc3ccc(N4CCN(C)CC4)cc3)nc2n1-c1cccc(C(C)(C)O)n1 [AZD1775] (first compound max 1 µM, partner max 1 µM) , thanks.
Response line: 0.633
